Field: IC50. Provide a value for each of the molecules that follow.
Molecular target: NAD-dependent protein deacetylase sirtuin-1 (Homo sapiens)
Sequence (Q96EB6 whole entry): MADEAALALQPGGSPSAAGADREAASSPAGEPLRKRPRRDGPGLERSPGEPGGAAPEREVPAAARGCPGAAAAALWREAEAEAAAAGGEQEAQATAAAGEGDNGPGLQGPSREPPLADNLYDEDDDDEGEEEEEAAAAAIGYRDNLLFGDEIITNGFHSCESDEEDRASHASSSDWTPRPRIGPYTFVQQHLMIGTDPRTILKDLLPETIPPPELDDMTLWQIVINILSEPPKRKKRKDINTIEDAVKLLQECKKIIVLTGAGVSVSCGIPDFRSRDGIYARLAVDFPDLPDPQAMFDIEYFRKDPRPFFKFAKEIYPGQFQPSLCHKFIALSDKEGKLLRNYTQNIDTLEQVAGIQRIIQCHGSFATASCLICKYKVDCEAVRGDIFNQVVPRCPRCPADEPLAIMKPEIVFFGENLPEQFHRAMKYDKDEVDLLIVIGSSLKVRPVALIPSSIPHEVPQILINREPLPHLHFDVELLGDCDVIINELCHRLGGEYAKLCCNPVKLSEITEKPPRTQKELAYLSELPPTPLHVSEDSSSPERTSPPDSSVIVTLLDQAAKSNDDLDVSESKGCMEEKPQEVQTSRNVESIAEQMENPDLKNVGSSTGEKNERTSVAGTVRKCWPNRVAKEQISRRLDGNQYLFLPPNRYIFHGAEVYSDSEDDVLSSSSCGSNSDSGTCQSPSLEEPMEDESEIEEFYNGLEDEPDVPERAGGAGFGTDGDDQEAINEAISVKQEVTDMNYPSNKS
Assay: Inhibition of human recombinant GST-tagged SIRT1 using KI177 as substrate preincubated for 5 mins followed by enzyme addition measured after 1 hr by fluorescence assay
Give the quantity in nM, number only.

Measured IC50 of COc1ccc(C(=O)CNC(=O)[C@H](CCCCNC(C)=S)NC(=O)OCc2ccccc2)cc1 : 890

Measured IC50 of CC(=S)NCCCC[C@H](NC(=O)[C@@H]1C[C@@H](O)CN1C(=O)OCc1ccccc1)C(=O)NCC(=O)c1ccccc1 : 240

Measured IC50 of COc1ccc2[nH]cc(CCNC(=O)[C@H](CCCCNC(C)=S)NC(=O)OCc3ccccc3)c2c1 : 5980

----------
Field: inhibition. Provide a value for each of the molecules that follow.
Biological target: NAD-dependent protein deacetylase sirtuin-2 (Homo sapiens) (UniProt Q8IXJ6)
Sequence (Q8IXJ6 whole entry): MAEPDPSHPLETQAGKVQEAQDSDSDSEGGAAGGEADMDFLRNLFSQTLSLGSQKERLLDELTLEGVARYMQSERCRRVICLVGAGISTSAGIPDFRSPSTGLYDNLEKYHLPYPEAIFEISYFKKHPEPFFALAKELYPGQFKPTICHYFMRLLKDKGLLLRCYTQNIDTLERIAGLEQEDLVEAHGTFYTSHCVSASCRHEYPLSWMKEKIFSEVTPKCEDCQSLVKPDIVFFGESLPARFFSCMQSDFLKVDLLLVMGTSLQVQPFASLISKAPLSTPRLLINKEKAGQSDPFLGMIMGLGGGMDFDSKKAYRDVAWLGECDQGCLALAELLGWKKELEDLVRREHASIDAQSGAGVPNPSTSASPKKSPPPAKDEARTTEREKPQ
Assay: Inhibition of human recombinant GST-tagged SIRT2 using KI179 as substrate at 50 uM preincubated for 5 mins followed by enzyme addition measured after 1 hr by fluorescence assay relative to control
Give the quantity in %, number only.

Measured inhibition of CC(=S)NCCCC[C@H](NC(=O)OCc1ccccc1)C(=O)NCCc1ccccc1 : 52

Measured inhibition of CC(=S)NCCCC[C@H](NC(=O)OCc1ccccc1)C(=O)NCc1ccccc1 : 67

Measured inhibition of CC(=S)NCCCC[C@H](NC(=O)OCc1ccccc1)C(=O)Nc1cccnc1 : 70

Measured inhibition of CC(=S)NCCCC[C@H](NC(=O)[C@@H]1C[C@@H](O)CN1C(=O)OCc1ccccc1)C(=O)NCC(=O)c1ccccc1 : 96

Measured inhibition of CC(=S)NCCCC[C@H](NC(=O)[C@@H]1CCCN1C(=O)OC(C)(C)C)C(=O)NCCc1cccnc1 : 49
